Source listed as patent US20200216432A1.

Measurement Target: unphosphorylated STAT3 monomer (uSTAT3) SH2 domain (Homo sapiens)
Sequence (P40763 whole entry, the tested form may be a part): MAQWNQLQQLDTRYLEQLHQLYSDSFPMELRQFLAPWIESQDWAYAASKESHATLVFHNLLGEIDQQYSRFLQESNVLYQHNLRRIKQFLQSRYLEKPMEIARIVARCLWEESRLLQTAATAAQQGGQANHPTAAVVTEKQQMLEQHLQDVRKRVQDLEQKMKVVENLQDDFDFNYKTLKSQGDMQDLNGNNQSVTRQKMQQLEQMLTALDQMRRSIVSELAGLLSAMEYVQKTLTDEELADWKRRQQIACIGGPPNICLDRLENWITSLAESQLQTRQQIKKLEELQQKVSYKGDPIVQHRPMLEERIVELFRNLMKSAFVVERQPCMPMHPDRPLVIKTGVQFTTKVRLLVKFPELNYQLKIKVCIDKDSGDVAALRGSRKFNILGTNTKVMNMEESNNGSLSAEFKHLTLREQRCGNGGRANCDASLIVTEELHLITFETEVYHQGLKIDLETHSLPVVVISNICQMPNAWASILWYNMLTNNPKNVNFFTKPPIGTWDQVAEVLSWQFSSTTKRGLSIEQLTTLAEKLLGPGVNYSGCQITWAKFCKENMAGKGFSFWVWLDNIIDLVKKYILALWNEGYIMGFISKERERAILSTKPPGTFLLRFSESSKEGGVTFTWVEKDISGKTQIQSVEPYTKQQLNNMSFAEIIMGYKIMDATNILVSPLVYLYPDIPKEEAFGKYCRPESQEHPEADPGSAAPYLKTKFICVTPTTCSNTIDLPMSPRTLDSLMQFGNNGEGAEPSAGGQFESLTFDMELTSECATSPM
Assay Procedure: Fluorescence polarisation assay for the inhibition of STAT3 dimerisation
Type: binding
Condition Notes: 350 nM uSTAT3, 10 nM FAM-pYLPQTV, 100 μM ligand; average of triplicate
Square brackets hold non-standard residues; d marks the D form. Peptide text beside a SMILES is read from it. pY = N[C@@H](Cc1ccc(OP(=O)(O)O)cc1)C(=O)O
Quantity Measured: inhibition at 100 µM (%)

Worked cases, answers included:
Compound	inhibition at 100 µM, %
COC(=O)c1ccc(N(C)S(=O)(=O)c2cc(C(=O)Nc3ccc(CN4CCOCC4)cc3)sc2Br)cc1 [Compound 23]	31.3
COC(=O)c1ccc(N(C)S(=O)(=O)c2cc(C(=O)NCc3ccc(CN4CCCCC4)cc3)sc2-c2ccc(C#N)cc2)cc1 [Compound 8]	36.4
COC(=O)c1ccc(N(C)S(=O)(=O)c2cc(C(=O)Nc3ccc(OCCN4CCOCC4)cc3)sc2-c2ccc(C(=O)N3CCN(C)CC3)cc2)cc1 [Compound 15]	40.6
CC(C)C[C@H](NC(=O)[C@@H](N)Cc1ccc(OP(=O)(O)O)cc1)C(=O)N[C@@H](CCCCN)C(=O)N[C@H](C(=O)N[C@@H](CCCCN)C(=O)N[C@@H](Cc1ccccc1)C(=O)O)[C@@H](C)O [pYLKTKF, reference compound] (H-[pY]LKTKF-OH)	41.6
COC(=O)c1ccc(N(C)S(=O)(=O)c2cc(C(=O)NCc3ccc(CN4CCCCC4)cc3)sc2-c2ccc(N3CCOCC3)cc2)cc1 [Compound 1]	59.4
COC(=O)c1ccc(N(C)S(=O)(=O)c2cc(C(=O)Nc3cccc(N4CCCCC4)c3)sc2Br)cc1 [Compound 28]	51.3

I. COC(=O)c1ccc(N(C)S(=O)(=O)c2cc(C(=O)Nc3ccc(OCCN4CCOCC4)cc3)sc2-c2ccc(N3CCOCC3)cc2)cc1 [Compound 9]
II. COC(=O)c1ccc(N(C)S(=O)(=O)c2cc(C(=O)NCc3ccc(CN4CCOCC4)cc3)sc2Br)cc1 [Compound 31]
III. COC(=O)c1ccc(N(C)S(=O)(=O)c2cc(C(=O)NCc3ccc(N4CCN(C)CC4)cc3)sc2Br)cc1 [Compound 32]
Query string: Put the compounds in ascending order of inhibition at 100 µM. Your task in answering is to list the labels in the requested order.
Result string: III, II, I
